Entries and their MIC values follow.
# Test system: E. coli strain 264 (MLST 131, No ESBL)
# test details: microbe, parasite or virus in culture
# Format: cell-based
# run parameters: Escherichia coli; E. coli 264; β-lactamase inhibitor alone; read-out: MIC

chemical string	MIC
O=C(O)C[C@@H]1CC[C@H](NC(=O)Cc2cccs2)B(O)O1	≥ 128 µg/mL
O=C(NC1CCNCC1)[C@@H]1CC[C@@H]2CN1C(=O)N2OS(=O)(=O)O	≥ 128 µg/mL
NCCN[C@H]1CC[C@H](CC(=O)N[C@H]2Cc3cccc(C(=O)O)c3OB2O)CC1	≥ 128 µg/mL

====

# Tested on: K. pneumoniae strain 237 (MLST 147, No ESBL)
# test details: microbe, parasite or virus in culture
# Type: cell-based
# run parameters: Klebsiella pneumoniae; K. pneumoniae 237; β-lactamase inhibitor alone; read-out: MIC
readout name: MIC

molecule	experimental value
O=C(O)C[C@@H]1CC[C@H](NC(=O)Cc2cccs2)B(O)O1 [Vaborbactam, vaborbactam]	≥ 128 µg/mL
NCCN[C@H]1CC[C@H](CC(=O)N[C@H]2Cc3cccc(C(=O)O)c3OB2O)CC1 [Taniborbactam, taniborbactam]	≥ 128 µg/mL
O=C(NC1CCNCC1)[C@@H]1CC[C@@H]2CN1C(=O)N2OS(=O)(=O)O [Relebactam, relebactam]	≥ 128 µg/mL

====

# System: K. pneumoniae strain 19 (MLST 11, ESBL)
# test details: microbe, parasite or virus in culture
# Format: cell-based
# run parameters: Klebsiella pneumoniae
# Procedure: The efficacy of these new BLIs was also evaluated against 18 genetically diverse WGS-characterized collection of OXA-48-positive Enterobacterales recovered as part of the Carbapenem-resistant Enterobacterales Genome Database Project (https://genomes.cnag.cat/incredble) listed in Table S2 ([13]). […] The MICs of each of the individual compounds (antibiotics or inhibitors) were also determined. […]
Entries and their MIC values follow.

chemical string	MIC
O=C(O)C[C@@H]1CC[C@H](NC(=O)Cc2cccs2)B(O)O1	≥ 128 µg/mL
NCCONC(=O)[C@@H]1CC[C@@H]2CN1C(=O)N2OS(=O)(=O)O	≥ 128 µg/mL
O=C(NC1CCNCC1)[C@@H]1CC[C@@H]2CN1C(=O)N2OS(=O)(=O)O	≥ 128 µg/mL

====

# Tested on: E. coli HB4 ΔompC/F (CTX-M-14 + OXA-48)
# test details: microbe, parasite or virus in culture
# Format: cell-based, Escherichia coli
# run parameters: Escherichia coli
Entries and their MIC values follow.

compound	MIC
CC(C)(O/N=C(\C(=O)N[C@@H]1C(=O)N2C(C(=O)[O-])=C(C[n+]3ccccc3)CS[C@H]12)c1csc(N)n1)C(=O)O [CAZ, ceftazidime]	16 µg/mL
O=C(NC1CCNCC1)[C@@H]1CC[C@@H]2CN1C(=O)N2OS(=O)(=O)O [Relebactam, relebactam]	≥ 128 µg/mL
C[C@@H](O)[C@H]1C(=O)N2C(C(=O)O)=C(S[C@@H]3CN[C@H](C(=O)Nc4cccc(C(=O)O)c4)C3)[C@H](C)[C@H]12 [ERT, ertapenem]	32 µg/mL
NCCN[C@H]1CC[C@H](CC(=O)N[C@H]2Cc3cccc(C(=O)O)c3OB2O)CC1 [Taniborbactam, taniborbactam]	≥ 128 µg/mL
CC1(C)[C@H](C(=O)O)N2C(=O)C[C@H]2S1(=O)=O [SUL, sulbactam]	64 µg/mL
NCCONC(=O)[C@@H]1CC[C@@H]2CN1C(=O)N2OS(=O)(=O)O [Nacubactam, nacubactam]	2 µg/mL
O=C(O)c1c(F)ccc2c1OB(O)[C@@H]1C[C@H]21 [Xeruborbactam, xeruborbactam]	16 µg/mL

====

Entries and their residence time values follow.
# experimental system: OXA-48 (Klebsiella pneumoniae)
# Sequence (Q6XEC0 23-265 limits assumed): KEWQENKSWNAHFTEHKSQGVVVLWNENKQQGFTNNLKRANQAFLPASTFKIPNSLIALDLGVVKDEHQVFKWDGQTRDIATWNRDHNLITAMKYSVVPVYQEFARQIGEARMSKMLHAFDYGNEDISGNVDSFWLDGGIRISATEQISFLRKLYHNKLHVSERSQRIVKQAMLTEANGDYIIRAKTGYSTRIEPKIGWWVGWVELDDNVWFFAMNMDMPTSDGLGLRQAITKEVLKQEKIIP
# test details: Dissociation rate (koff) by jump dilution; t1/2 and Kd
# Format: biochemical
# Set-up: These primers amplified the blaOXA-48 gene without the signal peptide; GST (glutathione S-transferase, pGEX-6P-1) (N, cleaved yes); made in house; host or cells: E. coli BL21
# run parameters: read-out: t1/2 (residence time)
# Description: OXA-48 was cloned, produced, and purified following the procedures described in the supplemental methods. The steady-state inhibition constants (Ki app) and kinetics of inhibition (such as k2/K , koff, Kd, and tn) were determined following previously established protocols, are also outlined in the supplemental methods. The dissociation rate constant (koff) was determined using a “jump dilution” method in which OXA-48 enzyme activity was monitored over time as the BLI dissociates. […]
readout name: residence time (min)

chemical string	readout name	experimental value
NCCN[C@H]1CC[C@H](CC(=O)N[C@H]2Cc3cccc(C(=O)O)c3OB2O)CC1	residence time	50.2
CC1=C[C@@H]2CN(C(=O)N2OS(=O)(=O)O)[C@@H]1C(N)=O	residence time	1220
O=C(O)C[C@@H]1CC[C@H](NC(=O)Cc2cccs2)B(O)O1	residence time	44.4
NCCONC(=O)[C@@H]1CC[C@@H]2CN1C(=O)N2OS(=O)(=O)O	residence time	57.7
